# System: NCI-H522 lung
# EXPERIMENT DESCRIPTION: NCI tumour cell line growth inhibition, 48 h
ENDPOINT LABEL: TGI

COc1cc(OC)c2c(c1)C(=O)C(CC1(C)OCCCO1)=CC2=O : 10.6 µM
C/C(=C\COc1cc(O)c2c(c1)C(=O)c1cc(C)cc(O)c1C2=O)CCC1OC1(C)C (centres undefined) : > 100 µM
CCNC(=O)N(CC)CN(CC)C(=O)NCC : > 100 µM
CCOC(=O)C(/C=N\C(=S)Nc1c(CC)cccc1C(C)(C)C)=C(/O)c1ccccc1 : > 100 µM
O=C(COc1nc2ccccc2nc1-c1ccccc1)Nc1ccc(Cl)cc1 : 28.6 µM
NC(=S)N/N=C1\CCCCc2ccccc21 : > 10 µM
CC1=C2O[C@]3(O)C=C2C(=C(O)C1=O)[C@@H]1O[C@H](CC[C@H](C)/C=C(\C)C[C@@H](C)C[C@@H]3C)[C@H](C)[C@H](O)[C@H]1C : 0.321 µM
CCOC(=O)C1CCCCN1C(=O)OCc1ccccc1 (centres undefined) : > 100 µM

--- query ---
Item COc1cccc2c1N[S@](=O)S2 has what recorded TGI? > 100 µM

* * *

# Test system: SK-MEL-5 melanoma
# EXPERIMENT DESCRIPTION: NCI tumour cell line growth inhibition, 48 h; in the data active means GI50 below about 0.43 µM; inactive means the rest
Write down one outcome, taken from active, inactive

COc1cccc(/C=N/[N-]C(=O)c2ccncc2)c1[O-].[Ni+2].[OH3+] : inactive
COc1cc(/C=C/c2cc(/C=C/c3ccc(O)c(OC)c3)n(-c3c(Cl)cccc3Cl)c(=O)n2)ccc1O : inactive
CC(=O)/C=C/c1ccc(OCc2ccc(C(C)(C)C)cc2)cc1 : inactive
CCCCCCCCCCS(=O)CC(CO)NC(=O)/C=C/c1c(C)[nH]c(=O)[nH]c1=O (configuration not stated) : inactive
CC1(C)C(N(O)C(=O)Nc2ccc(Cl)cc2)N(c2ccc(Cl)cc2)C(=O)N1CC(=O)N/N=C/C=C/c1ccc([N+](=O)[O-])o1 (configuration not stated) : inactive

I would be grateful if you could indicate the recorded call for COc1ccc(-c2cc(-c3ccccc3)nc(SCCCC(=O)NO)n2)cc1OC . inactive

* * *

# System: CAKI-1 renal
# EXPERIMENT DESCRIPTION: NCI tumour cell line growth inhibition, 48 h
I'd appreciate it if you could supply TGI values for the items below.

Solved entries:
CCOC(=O)C1CCCCN1C(=O)OCc1ccccc1 (centres undefined) : > 100 µM
CNC(=O)NCC1OC(n2cnc3c(NC(=O)Nc4ccccc4)ncnc32)C(O[Si](C)(C)C(C)(C)C)C1CC(=O)N(C)OC (centres undefined) : > 100 µM
O=[N+]([O-])c1cc(Cl)c(Cl)cc1[N+](=O)[O-] : 4.28 µM
OC1c2ccccc2CCC1C(O)(C(F)(F)F)C(F)(F)F (centres undefined) : > 100 µM
COC(=O)/C(=N\NC(=O)c1ccccc1O)C(C#N)c1ccccc1 (centres undefined) : > 50 µM
C#CCn1cnc2cnc(Nc3cccc(NC(=O)CCl)c3)nc21 : > 62.5 µM

List reported TGI for each of these compounds:
1. O=C(c1ccc(Cl)cc1)c1no[n+]([O-])c1C(=O)c1ccc(Cl)cc1
2. CCOCCOC(=O)C1CCC(=O)N1CN(C(C)=O)c1cc(OC)ccc1OC (centres undefined)
3. CCC(=O)c1cc(C(=O)C(=S)SC)cc(C(=O)C(=S)SC)c1
4. CC(C)OC(=O)C1=C2c3ncccc3C(=O)N2[C@@H](Cl)[C@H](Cl)[C@H]1Cl
5. CCN(CC)CCNc1ccc2nnn3c4ccc([N+](=O)[O-])cc4c(=O)c1c23
6. CCCCCC(=O)N[C@H]1CCc2cc(O)c(O)c(O)c2-c2ccc(SC)c(=O)cc21

1: 12.2 µM; 2: > 100 µM; 3: > 100 µM; 4: > 100 µM; 5: 27.3 µM; 6: 91.6 µM

Give one value of TGI per listed compound.
1. O=C1c2[nH]c3ccccc3c2CCN2CCCCC12 (centres undefined)
2. OC(c1ccoc1)c1cc2ccccc2s1 (centres undefined)

1: > 100 µM; 2: > 10 µM

Please give TGI, item by item, for the list that follows.
1. CC(C)=CCC/C(C)=C/CC/C(C)=C/CC/C(C)=C/CSC[C@H](NC(=O)CCCCCN1CCN(C)CC1)C(=O)NC1CCCCC1
2. CC1=C(O)C(=O)C(C2=C(O)C(=O)C(C)=C(O)C2=O)=C(O)C1=O
3. COc1ccc(CC(C)=C(c2ccc(OCCN3CCCCCC3)cc2)c2ccc(OCCN3CCCCCC3)cc2)cc1
4. O=C(CSc1nnc(SCC(=O)NN=C2CCCCC2)s1)NN=C1CCCCC1
5. CC(C)=[CH][Sb]([Br])([CH]=C(C)C)([CH]=C(C)C)[c]1ccccc1

1: 11 µM; 2: > 100 µM; 3: 0.93 µM; 4: > 100 µM; 5: > 100 µM

* * *

# System: OVCAR-8 ovarian
# EXPERIMENT DESCRIPTION: NCI tumour cell line growth inhibition, 48 h
ENDPOINT LABEL: TGI

Use these answered entries as a reference point.
NC(=S)N/N=C1\CCCCc2ccccc21 : > 10 µM
COc1cc2ccnc(C=O)c2cc1OC : 63.4 µM
O=C(Cc1nc2ccccc2o1)C(=O)Nc1ccccc1C(F)(F)F : > 100 µM
O=C(CSc1nnc(SCC(=O)NN=C2CCCCC2)s1)NN=C1CCCCC1 : > 100 µM
COc1cc(/C=C/c2cc(/C=C/c3ccc(O)c(OC)c3)n(-c3c(Cl)cccc3Cl)c(=O)n2)ccc1O : 10.5 µM

Provide TGI values for the following items, in order.
1. CCOC(=O)C(/C=N\C(=S)Nc1c(CC)cccc1C(C)(C)C)=C(/O)c1ccccc1
2. COC1=C(OC)C(O)(c2ccccc2)C1=O (stereo unspecified)
3. CC1CCC2(OCCO2)[C@]2(C)CC(O)C(=O)C=C12 (stereo partly specified)

1: > 100 µM; 2: > 100 µM; 3: > 100 µM

* * *

# System: TK-10 renal
# EXPERIMENT DESCRIPTION: NCI tumour cell line growth inhibition, 48 h
ENDPOINT LABEL: GI50

Below, each entry is followed by its recorded GI50 result.
O=C(Nc1nc(-c2ccc(Cl)cc2)cs1)c1cc(-c2ccc(Br)cc2)nc2ccc(Cl)cc12 : 29.2 µM
O=C(Nc1ccc(OCc2nnc(-c3ccc(Cl)cc3)o2)c(F)c1)c1ccc(Cl)c(C(F)(F)F)c1 : > 50 µM
O=C(c1ccc(Cl)cc1)c1no[n+]([O-])c1C(=O)c1ccc(Cl)cc1 : 15 µM
CC(C)=[CH][Sb]([Br])([CH]=C(C)C)([CH]=C(C)C)[c]1ccccc1 : 34.9 µM

Looking for the measured GI50 of COc1ccc(CC(C)=C(c2ccc(OCCN3CCCCCC3)cc2)c2ccc(OCCN3CCCCCC3)cc2)cc1 , can you help? 0.729 µM

* * *

Field: GI50. Provide a value for each of the compounds that follow.
# Test system: NCI-H23 lung
# EXPERIMENT DESCRIPTION: NCI tumour cell line growth inhibition, 48 h

NCCCOc1cc2ccccc2cc1C(=O)NCCOc1nc2ccccc2cc1C(=O)Nc1ccc(Cl)cc1O : 0.941 µM
CC(C)=[CH][Sb]([Br])([CH]=C(C)C)([CH]=C(C)C)[c]1ccccc1 : 14.4 µM
COc1ccc(-c2cc(-c3ccccc3)nc(SCCCC(=O)NO)n2)cc1OC : 1.57 µM
N#Cc1c(-c2ccccc2)cc(-c2ccccc2)n(CCCC(=O)NO)c1=O : 2.77 µM
CC1(C)CN(c2cc(C(F)(F)F)cc3cncn23)CCC12NC(=O)NC2=O (stereo not given) : 35.5 µM
CC(=O)NS(=O)(=O)c1ccc(-n2nc(-c3ccc(Cl)cc3)cc2-c2cc(O)ccc2O)cc1 : 18.6 µM
COc1cc2ccnc(C=O)c2cc1OC : 24.9 µM
c1ccc2cc(C[n+]3ccn(CCCCCCCCCCCCn4cc[n+](Cc5ccc6ccccc6c5)c4)c3)ccc2c1 : 0.722 µM

For every item below, please supply its GI50.
1. Nc1nc(N)c(N=Nc2ccccc2)c(-c2ccccc2)n1
2. CCCCCCCCCCS(=O)CC(CO)NC(=O)/C=C/c1c(C)[nH]c(=O)[nH]c1=O (stereo not given)

10.4 µM
29.5 µM

* * *

# Test system: CCRF-CEM leukemia
# EXPERIMENT DESCRIPTION: NCI tumour cell line growth inhibition, 48 h
Provide the reported TGI of each item.
Answers are plain numbers, in µM.

// known answers, use as guide
C[n+]1c(-c2ccccc2)c2cc(N)ccc2c2ccccc21 : 29.5
COc1ccc(-c2cc(-c3ccccc3)nc(SCCCC(=O)NO)n2)cc1OC : 11.1

Attention now shifts to the item below.
I'd like to know its TGI. The compound in question is CC1(C)C(N(O)C(=O)Nc2ccc(Cl)cc2)N(c2ccc(Cl)cc2)C(=O)N1CC(=O)N/N=C/C=C/c1ccc([N+](=O)[O-])o1 (stereo unspecified) 2.2
